Origin of measurements: the supplement of paper PMC11196671

EXPERIMENT SUMMARY: MHET released, HPLC; higher = more MHET released; extreme values may be limits of the assay
MEASUREMENT CONDITIONS: PET substrate: aFilm; 60 °C; pH 9.5; 24 h
REPORTED PROPERTY: MHET released (mM)
The response must be a number in mM with no trailing unit.

Reported MHET released for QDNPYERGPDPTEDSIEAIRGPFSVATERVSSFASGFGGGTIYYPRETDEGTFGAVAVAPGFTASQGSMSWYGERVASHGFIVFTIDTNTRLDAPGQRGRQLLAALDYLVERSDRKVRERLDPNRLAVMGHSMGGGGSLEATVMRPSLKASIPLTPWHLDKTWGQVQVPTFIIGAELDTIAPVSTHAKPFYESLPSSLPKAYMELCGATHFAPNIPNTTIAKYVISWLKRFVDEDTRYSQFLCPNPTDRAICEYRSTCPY [Cut190*SS] was 0.155

---

EXPERIMENT SUMMARY: BHET released, HPLC; higher = more BHET released; extreme values may be limits of the assay
MEASUREMENT CONDITIONS: PET substrate: cryPow; 60 °C; pH 7.5; 24 h
Listing of entries alongside the reported BHET released.

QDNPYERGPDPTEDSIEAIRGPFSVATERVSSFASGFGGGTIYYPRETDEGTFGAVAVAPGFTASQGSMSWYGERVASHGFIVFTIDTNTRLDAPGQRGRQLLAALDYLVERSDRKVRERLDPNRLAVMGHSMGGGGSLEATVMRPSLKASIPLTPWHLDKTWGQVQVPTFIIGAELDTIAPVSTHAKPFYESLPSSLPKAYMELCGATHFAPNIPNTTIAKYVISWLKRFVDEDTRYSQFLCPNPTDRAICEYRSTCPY [Cut190*SS] = 0.0058 mM

Turning now to a further sequence:
Reported BHET released for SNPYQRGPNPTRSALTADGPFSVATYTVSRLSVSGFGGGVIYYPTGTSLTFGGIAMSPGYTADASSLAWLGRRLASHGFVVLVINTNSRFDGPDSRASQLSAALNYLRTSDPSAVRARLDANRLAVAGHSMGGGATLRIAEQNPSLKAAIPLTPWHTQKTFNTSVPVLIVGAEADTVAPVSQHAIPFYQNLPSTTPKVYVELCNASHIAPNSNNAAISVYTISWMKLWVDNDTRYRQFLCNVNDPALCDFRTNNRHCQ [LCC-ICCG DAQI] was 0 mM

---

EXPERIMENT SUMMARY: PET hydrolysis product formed (TPA+MHET+BHET, UV-Vis) per mg enzyme (mmol/mg enzyme); higher = more PET depolymerisation activity; extreme values may be limits of the assay
MEASUREMENT CONDITIONS: PET substrate: aFilm; 60 °C; pH 6.5; 24 h
REPORTED PROPERTY: PET hydrolysis product formed

Reported PET hydrolysis product formed for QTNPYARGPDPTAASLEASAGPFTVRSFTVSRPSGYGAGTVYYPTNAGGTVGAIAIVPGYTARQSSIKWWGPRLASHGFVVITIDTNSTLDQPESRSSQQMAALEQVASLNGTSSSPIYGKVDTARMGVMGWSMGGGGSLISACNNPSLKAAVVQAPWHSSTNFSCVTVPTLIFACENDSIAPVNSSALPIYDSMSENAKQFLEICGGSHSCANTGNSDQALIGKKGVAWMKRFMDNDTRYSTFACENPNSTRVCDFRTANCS [Z1-PETase] was 0.113
